Reference source: paper PMC10557143

- system.under.test: T1, U2AF1 (human, UniProt Q01081 1-240)
- T1 sequence: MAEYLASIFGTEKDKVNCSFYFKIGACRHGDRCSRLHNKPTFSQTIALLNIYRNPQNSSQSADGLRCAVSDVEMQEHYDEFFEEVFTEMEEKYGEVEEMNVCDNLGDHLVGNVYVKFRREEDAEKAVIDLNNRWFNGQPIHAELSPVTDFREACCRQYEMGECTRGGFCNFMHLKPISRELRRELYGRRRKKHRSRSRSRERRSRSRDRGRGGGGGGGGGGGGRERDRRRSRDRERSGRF
- test.details: fluorescence anisotropy; 100 mM K+; Anisotropy: 10 nM probe, 10 mM Tris-HCl pH 7.5, 1 mM EDTA, 100 mM KCl, 0.1 mM DTT, 10 ug/mL BSA, 30 min on ice; EMSA same but Tris pH 8.0, 6% native PAGE in 1x
- assay.context: protein: recombinant; tags: His6 (pET30a); label: 5' TAMRA; antiparallel intramolecular G4
attribute.measured: Kd (nM)
Kindly answer with a numeric value in nM, unit omitted.

Problem: Using the record for GGGTTAGGGTTAGGGTTAGGGT (structured_DNA) [2KF8_G4] , report its Kd.
Result: 9
